Origin of measurements: ChEMBL document CHEMBL4387752

- ASSAY OVERVIEW: Tmax in Balb/c mouse at 20 mg/kg, po
- Assay type: ADME, organism-based
- CONDITIONS USED: in vivo
QUANTITY MEASURED: Tmax (min)

{"COMPOUND": "COCCS(=O)(=O)C(C(=O)NCC(=O)NC1CC1)c1nc2ccc(-c3ccc(F)nc3)cc2s1 (stereo unspecified)", "QUANTITY MEASURED": "Tmax", "MEASUREMENT": 30}

----------
- ASSAY OVERVIEW: Cmin in C57BL/6 mouse at 20 mg/kg, po bid measured after 8 hrs
- Assay type: ADME, organism-based
- CONDITIONS USED: in vivo, read-out: Cmin

{"COMPOUND": "COCCS(=O)(=O)C(C(=O)NCC(=O)NC1CC1)c1nc2ccc(-c3ccc(F)nc3)cc2s1 (stereo unspecified)", "concentration at 8 h / µM": 5.2}
